Measured on: CDK2/cyclin E (Homo sapiens, UniProt P24941)
Construct: His; made in house; host or cells: Sf9 insect cells (baculovirus)
Protocol text: CDK2/cyclin E kinase assay (GST-Rb phosphorylation);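 also: enzyme source: His-tagged CDK2/cyclin E co-expressed in Sf9 insect cells via baculovirus, then purified by metal-chelate chromatography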
Type: biochemical
Recorded conditions: Table 2, further results for CDK2/cyclin E inhibition; read-out: CDK2/cyclin E
pIC50: −log10 of the molar value.
Okay, here is how we bin by pIC50: bucket A = under 6, bucket B = from 6 up to 7, bucket C = 7 and over

Worked set:
CNc1nc(C)c(-c2ccnc(Nc3ccc(Cl)c(C(F)(F)F)c3)n2)s1 bucket A
Cc1nc(C)c(-c2ccnc(Nc3ccc(F)cc3F)n2)s1 bucket C
C=CCNc1nc(C)c(-c2ccnc(Nc3ccc(F)cc3)n2)s1 bucket B
CNc1nc(C)c(-c2ccnc(Nc3ccc(O)c([N+](=O)[O-])c3)n2)s1 bucket B
CNc1nc(C)c(-c2ccnc(Nc3ccc(F)cc3F)n2)s1 bucket A
CNc1nc(C)c(-c2ccnc(Nc3cc(F)cc(F)c3)n2)s1 bucket A

Kindly state the category for this compound: `CNc1nc(C)c(-c2ccnc(Nc3cccc(Br)c3)n2)s1`
bucket B

Kindly state the category for this compound: `COc1ccccc1Nc1nccc(-c2sc(C)nc2C)n1`
bucket A

Kindly state the category for this compound: `Cc1nc(-c2ccccc2)sc1-c1ccnc(Nc2ccc(O)cc2)n1`
bucket A

Kindly state the category for this compound: `Cc1nc(C)c(-c2ccnc(Nc3ccc(Br)cc3)n2)s1`
bucket B

Kindly state the category for this compound: `Cc1nc(C)c(-c2ccnc(Nc3cccc(I)c3)n2)s1`
bucket B

Reference source: patent US6699854B2
